Tested on: PC-3 prostate
Assay: NCI-60 one-dose screen, 48 h
Settings: 10 µM unless noted
Method: Growth inhibition of the PC-3 human tumor cell line is measured as a screen for anti-cancer activity. Cells are grown in 96 well plates and exposed to the test compound for 48 hours. Compounds are tested at a single concentration, which is 10^-5 M for most compounds. The reported endpoint is percent growth (GI% or GIPRCNT), where numbers from 0 - 100% represent growth inhibition, and numbers from -100% - 0 represent cell death. For example, a value of 40 represents 60% growth inhibition. […]
This is part of a sample that, as a whole, favours compounds with a hit. Of some 83,000 tested, about 20% had one in any assay. Activity calls are given as the source filed them. The calls were made as follows: active = growth percent below 10; inactive = the rest.
Returns: one label drawn from TRUE = active, FALSE = inactive

Consider the following illustrative entries.
COc1ccc2cc(-c3ccc(NC(C)=O)c(=O)o3)ccc2c1	FALSE
C#CCOc1ccc2ncnc(Nc3cccc(NC(=O)C=C)c3)c2c1	FALSE
Nc1ncnc2c1N=C(c1ccc(Cl)cc1)CC(c1ccc3c(c1)OCO3)N2 (centres undefined)	FALSE
COC(=O)c1c2c(c(C)[n+]([O-])c1C)C(=O)C=C(NCc1ccc(OC)cc1)C2=O	TRUE
COC(=O)/C=C1/SC(=Nc2ccc(C)cc2)N(CCc2c[nH]c3ccc(O)cc23)C1=O	FALSE

Input: State the result this test recorded for CN(C)CCCC1(c2ccc(F)cc2)OCc2cc(-c3cccc4[nH]ccc34)ccc21 (centres undefined) .
Output: FALSE

Input: State the result this test recorded for CCN(CC)c1nc(SCc2ccccc2Cl)ncc1C .
Output: FALSE

Input: State the result this test recorded for CO[C@]12C=C/C(=C(/C(=O)OCc3cccnc3)C(=O)CCCCCCCC[C@@]3(OC)C=C/C(=C(/C(=O)OCc4cccnc4)C(=O)CCCCCCCC1)O3)O2 .
Output: TRUE

Input: State the result this test recorded for COC(=O)CNC(=O)[C@H](Cc1ccccc1)NCc1ccncc1 .
Output: FALSE

Input: State the result this test recorded for C=C1C(=O)O[C@H]2[C@H]1CC/C(COC(=O)NCc1ccc(Cn3c(=O)sn(CCI)c3=O)cc1)=C\CC[C@@]1(C)O[C@@H]21 .
Output: FALSE

Input: State the result this test recorded for O=C(Nc1cccnc1Nc1ccc(F)cc1)c1cn(Cc2cccc(Oc3ccccc3)c2)nn1 .
Output: FALSE

Input: State the result this test recorded for Cc1ccc(C2=Nc3c(N)ncnc3NC(c3ccc4c(c3)OCO4)C2)cc1 (centres undefined) .
Output: FALSE

---

Tested on: NCI-H226 lung
Assay: NCI-60 one-dose screen, 48 h
Settings: 10 µM unless noted
The panel holds about 83,000 compounds, 20% with a hit somewhere; the sample as a whole holds those more often. Calls of active or inactive are those of the source. The calls were made as follows: active = growth percent below 10; inactive = the rest.
Returns: one label drawn from 1 (yes) for active, 0 (no) for inactive

Consider the following illustrative entries.
CCN(CC)CCOc1ccc(C(=C(C)c2ccc(Cl)cc2)c2ccc(OCCN(CC)CC)cc2)cc1	0 (no)
COc1ccc(-c2nc(SCC(C)C)nc(N/N=C\c3ccc(F)cc3)c2C#N)cc1	0 (no)
CCc1ccc(C(=O)/C=C/C23c4ccccc4C(c4ccccc42)C2C(=O)NC(=O)C23)cc1 (centres undefined)	0 (no)
COc1cc(C(=O)n2nc(N3CCN(C)CC3)c3cc(N)ccc32)cc(OC)c1OC	0 (no)

Now look at this one.
Input: State the result this test recorded for O=C1c2cccc3cccc(c23)C(=O)N1N1C(=O)c2cccc3c(N4CCOCC4)ccc(c23)C1=O .
Output: 0 (no)

---

Tested on: COLO 205 colon
Assay: NCI-60 one-dose screen, 48 h
Conditions: 10 µM unless noted
The panel holds about 83,000 compounds, 20% with a hit somewhere; the sample as a whole holds those more often. Calls of active or inactive are those of the source. How the source made its calls: active means growth percent below 10; inactive means the rest.
Returns: one label drawn from yes for active, no for inactive

Consider the following illustrative entries.
Nc1nc2c([nH]1)c1[nH]c3ccccc3c1c1[nH]c3ccccc3c21	yes
Cc1ccc(-c2csc(NC(=O)CN3CCN(c4cc5c(cc4F)c(=O)c(C(=O)O)cn5C4CC4)CC3)n2)cc1	yes
CCNc1nc(-c2ccc(Cl)c(OC)c2)c(-c2ccnc(NCCCNS(=O)(=O)c3ccc(Cl)cc3)n2)s1	no
COc1cc(-c2nc3cc(Cl)c(Cl)cc3[nH]2)ccc1OCC(=O)N=Nc1c(O)[nH]c2ccc([N+](=O)[O-])cc12	no
CO[C@H]1/C=C(/C)CCC[C@H](C)[C@H](O)[C@@H](C)C(=O)C(C)(C)[C@@H](O)CC(=O)O[C@@H]1/C(C)=C/c1csc(C)n1	yes

Input: State the result this test recorded for CC1(c2ccccc2O)NN=C(/N=C/c2cccc([N+](=O)[O-])c2)N1C(Cc1c[nH]c2ccccc12)C(=O)O (centres undefined) .
Output: no

Input: State the result this test recorded for Clc1ccc(Sc2cnc(-c3ccccc3)o2)cc1 .
Output: no

Input: State the result this test recorded for CC1(C)c2[nH]c3ccccc3c2C[C@]2(C)[C@H]3CC=C4[C@@H]5C[C@@](C)(C(N)=O)CC[C@]5(C)CC[C@@]4(C)[C@]3(C)CC[C@@H]12 .
Output: no

Input: State the result this test recorded for O=[N+]([O-])/C(=C/C=C/c1ccccc1)c1ccccc1 .
Output: no

Input: State the result this test recorded for O=S(=O)(Nc1ccccc1)c1ccc(C2CC3(Cl)C(Cl)=C(Cl)C2(Cl)C3(Cl)Cl)cc1 (centres undefined) .
Output: no

Input: State the result this test recorded for CSc1nnc(-c2cnn3c2NC(c2ccccc2)C3)n1-c1ccc(C(F)(F)F)cc1 (centres undefined) .
Output: no

Input: State the result this test recorded for CN(C)CCCn1c2c(c3ncccc3c1=O)C(=O)c1ccccc1-2 .
Output: no

---

Test system: 786-0 renal
Assay: NCI-60 one-dose screen, 48 h (100 = growth as untreated, 0 = no growth, -100 = all killed)
Conditions: 10 µM unless noted
The panel holds about 83,000 compounds, 20% with a hit somewhere; the sample as a whole holds those more often. Activity calls are given as the source filed them. How the source made its calls: active means growth percent below 10; inactive means the rest.
METRIC NAME: growth

Input: Recorded growth of O=C1/C(=C/c2ccc(F)cc2)COc2ccc(O)c(O)c21 , please.
Output: -47.6% (active)

Input: Recorded growth of COc1ccc(C(=O)Nc2ncc(Cc3ccc(F)cc3)s2)cc1 , please.
Output: 27.8% (inactive)

Input: Recorded growth of O=C1c2cccnc2C(=O)c2c1c(C(=O)NCCCN1CCCCC1)c1ccccn21 , please.
Output: 5.99% (active)

Input: Recorded growth of Nc1ncnc2c1N=C(c1ccc3c(c1)OCO3)CC(c1ccc([N+](=O)[O-])cc1)N2 (stereo not given) , please.
Output: 51.8% (inactive)

Input: Recorded growth of COc1cc(/C=C\c2cc(/C=C\c3ccc(O)c(OC)c3)n(C(=O)COc3ccc(Cl)cc3Cl)n2)ccc1O , please.
Output: 13.7% (inactive)

---

Test system: HCT-116 colon
Assay: NCI-60 one-dose screen, 48 h
Conditions: 10 µM unless noted
Experimental: Growth inhibition of the HCT-116 human tumor cell line is measured as a screen for anti-cancer activity. Cells are grown in 96 well plates and exposed to the test compound for 48 hours. Compounds are tested at a single concentration, which is 10^-5 M for most compounds. The reported endpoint is percent growth (GI% or GIPRCNT), where numbers from 0 - 100% represent growth inhibition, and numbers from -100% - 0 represent cell death. For example, a value of 40 represents 60% growth inhibition. […]
This is part of a sample that, as a whole, favours compounds with a hit. Of some 83,000 tested, about 20% had one in any assay. Active and inactive are the calls of the source. Rule for the calls: active = growth percent below 10; inactive = the rest.
Returns: one label drawn from true (1) (active), false (0) (inactive)

Consider the following illustrative entries.
CN([O-])c1nc(N(C)[O-])nc(N2CCOCC2)n1.CN([O-])c1nc(N(C)[OH2+])nc(N2CCOCC2)n1.[Fe+3]	false (0)
COc1ccc2c(c1)c(-c1noc(C(=O)c3cn(C)c4ccc(Br)cc34)n1)cn2C	false (0)
C=C(C)[C@@H]1CC[C@]2(C(=O)O)CC[C@]3(C)[C@H](CC[C@@H]4[C@@]5(C)C[C@@H](Cc6cn(CCO[C@@H]7O[C@H](COC(C)=O)[C@H](OC(C)=O)[C@H](OC(C)=O)[C@H]7OC(C)=O)nn6)[C@H](O)C(C)(C)[C@@H]5CC[C@]43C)[C@@H]12	false (0)

Input: State the result this test recorded for COC(C(=O)[C@@H](O)[C@@H](C)O)[C@@H]1Cc2cc3cc(O[C@H]4C[C@@H](O[C@H]5C[C@@H](O)[C@H](O)C(C)O5)[C@H](O)C(C)O4)c(C)c(O)c3c(O)c2C(=O)[C@H]1O[C@H]1C[C@@H](O[C@H]2C[C@@H](O[C@H]3C[C@@H](O)[C@H](OC)C(C)O3)[C@@H](O)C(C)O2)[C@H](O)C(C)O1 (stereo partly specified) .
Output: false (0)

Input: State the result this test recorded for O=C1Nc2ccccc2[C@]12CC(c1ccccc1)=NN2 .
Output: false (0)

Input: State the result this test recorded for O=[N+]([O-])C1C(c2ccccc2)C12c1ccccc1-c1ccccc12 (stereo unspecified) .
Output: true (1)
